Consider the following molecules and their measured inhibition readings.
molecular target: Programmed cell death protein 1/Programmed cell death 1 ligand 1 (Homo sapiens) (UniProt Q15116+Q9NZQ7); assay: Inhibition of PD-1/PD-L1 (unknown origin) interaction assessed as inhibition rate at 0.1 uM by HTRF assay relative to control; assay type: protein-complex assay
// note: answer is a bare numeric in %

# INPUT SMILES, inhibition / %
rows = [
    ("CCCNNC(=O)CCCCNCc1ccc(-c2cccc(-c3ccccc3)c2C)nc1OC", 54.4),
]

Ask | Would you mind telling me what inhibition value was observed for "CCCNNC(=O)c1ccc(C(=O)NCCNCc2ccc(-c3cccc(-c4ccccc4)c3C)nc2OC)cc1" ?
Reply | 23.4

Ask | Would you mind telling me what inhibition value was observed for "CCCNNC(=O)c1ccc(NCc2ccc(-c3cccc(-c4ccccc4)c3C)nc2OC)cc1" ?
Reply | 1.83

Ask | Would you mind telling me what inhibition value was observed for "CCCNNC(=O)CCCCCCNCc1ccc(-c2cccc(-c3ccccc3)c2C)nc1OC" ?
Reply | 12.5

Ask | Would you mind telling me what inhibition value was observed for "CCCNNC(=O)CCNCc1ccc(-c2cccc(-c3ccccc3)c2C)nc1OC" ?
Reply | 58.8

Ask | Would you mind telling me what inhibition value was observed for "CCCNNC(=O)c1ccc(NCCNCc2ccc(-c3cccc(-c4ccccc4)c3C)nc2OC)nn1" ?
Reply | 9.3

Ask | Would you mind telling me what inhibition value was observed for "CCCNNC(=O)c1ccc(CNCc2ccc(-c3cccc(-c4ccccc4)c3C)nc2OC)cc1" ?
Reply | 11.3

Ask | Would you mind telling me what inhibition value was observed for "CCCNNC(=O)c1cnc(NCCCNCc2ccc(-c3cccc(-c4ccccc4)c3C)nc2OC)cn1" ?
Reply | 18.8

Ask | Would you mind telling me what inhibition value was observed for "CCCNNC(=O)c1cnc(N2CC(NCc3ccc(-c4cccc(-c5ccccc5)c4C)nc3OC)C2)nc1" ?
Reply | 17.8
